Molecular target: human 5-HT2C receptor (Homo sapiens, UniProt P28335, I156V/I160V/N158S)
Sequence (P28335 33-458 I156V/N158S/I160V limits assumed): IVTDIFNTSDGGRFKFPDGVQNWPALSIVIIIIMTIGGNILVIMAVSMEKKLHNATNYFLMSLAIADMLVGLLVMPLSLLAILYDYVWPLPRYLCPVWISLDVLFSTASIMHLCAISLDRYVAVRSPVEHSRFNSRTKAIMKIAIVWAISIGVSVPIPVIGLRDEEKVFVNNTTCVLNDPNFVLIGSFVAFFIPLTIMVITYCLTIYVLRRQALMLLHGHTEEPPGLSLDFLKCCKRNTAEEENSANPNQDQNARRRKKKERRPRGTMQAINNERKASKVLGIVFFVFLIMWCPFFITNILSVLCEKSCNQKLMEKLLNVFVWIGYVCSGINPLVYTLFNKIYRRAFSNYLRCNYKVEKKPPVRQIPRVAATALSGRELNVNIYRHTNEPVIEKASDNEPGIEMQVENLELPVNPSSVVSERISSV
Assay: cell-based
Readout Label: pEC50
Answers are plain numbers, as −log10 of the molar value.

{"Compound": "CCN1CCCN(C(=O)C2CN(c3c4c(nc5ccnn35)CCN(C)CC4)C2)CC1", "pEC50": 7.09}
{"Compound": "CCOC1CN(c2c3c(nc4ccnn24)CCNCC3)C1", "pEC50": 6.18}
{"Compound": "c1ccc(CCc2cnn3c(N4CCC4)c4c(nc23)CCNCC4)nc1", "pEC50": 6.81}
{"Compound": "c1cnn(CC2CN(c3c4c(nc5ccnn35)CCNCC4)C2)c1", "pEC50": 7.82}
{"Compound": "CN(CC1CCCCC1)C(=O)C1CN(c2c3c(nc4ccnn24)CCNCC3)C1", "pEC50": 6.80}

Hey, can you go through the list below and give me pEC50 for every item?
1. c1cnc2ccc(OC3CN(c4c5c(nc6ccnn46)CCNCC5)C3)cc2c1
2. O=C(C1CN(c2c3c(nc4ccnn24)CCNCC3)C1)N1CCC2(CCCc3ccccc32)C1 (stereo not shown)
3. CCN(C(=O)C1CN(c2c3c(nc4ccnn24)CCNCC3)C1)C(C)C

1: 6.68; 2: 7.02; 3: 6.51

----------
Biological target: human 5-HT2C receptor (Homo sapiens, UniProt P28335, I156V/I160V/N158S)
Assay: cell-based
Record form. Attribute: pEC50. Fill in for each entry.
Answers are plain numbers, as −log10 of the molar value.

{"Compound": "c1ccc(C(OC2CCCN(c3c4c(nc5ccnn35)CCNCC4)C2)c2ccccc2)cc1 (stereo not shown) [Example 1.37]", "pEC50": 5.89}
{"Compound": "COc1ccc(OC2CN(c3c4c(nc5ccnn35)CCNCC4)C2)cc1OC [Example 35.49]", "pEC50": 6.86}
{"Compound": "CN1CCc2nc3ccnn3c(N3CC(C(=O)N[C@H]4CC[C@H](N(C)C)CC4)C3)c2CC1 [Example 36.16]", "pEC50": 6.55}

Okay, now this compound:
Query: pEC50; subject: Cc1ccc(OCC2CN(c3c4c(nc5ccnn35)CCNCC4)C2)c(F)c1F [Example 15.10]
7.70

----------
Target: human 5-HT2C receptor (Homo sapiens, UniProt P28335, I156V/I160V/N158S)
Test: cell-based
Record form. Attribute: EC50. Fill in for each entry.
One number for each entry, in nM.

Consider the worked cases shown below.
{"Molecule": "O=C(C1CN(c2c3c(nc4ccnn24)CCNCC3)C1)N1CCC2CC2(c2ccccc2)C1 (centres unmarked)", "Quantitative Result": 106}
{"Molecule": "Cn1c(=O)ccc2c(OC3CN(c4c5c(nc6ccnn46)CCNCC5)C3)cccc21", "Quantitative Result": 41}
{"Molecule": "CC1CC(c2ccccc2)CN1C(=O)C1CN(c2c3c(nc4ccnn24)CCNCC3)C1 (centres unmarked)", "Quantitative Result": 54}

Hey, can you go through the list below and give me EC50 for every item?
1. CN1CCc2nc3ccnn3c(N3CC(C(=O)N4CCC(N5CCCC5)CC4)C3)c2CC1
2. Cc1cnn2c(N3CC(C(=O)N4c5ccccc5CC4C)C3)c3c(nc12)CCNCC3 (centres unmarked)
3. CC(=O)N(C)C1CCN(C(=O)C2CN(c3c4c(nc5ccnn35)CCN(C)CC4)C2)CC1

1. 38
2. 84
3. 187

Hey, can you go through the list below and give me EC50 for every item?
1. COc1ccccc1C1CCN(c2c3c(nc4ccnn24)CCNCC3)C1 (centres unmarked)
2. O=C(C1CN(c2c3c(nc4c(Br)cnn24)CCNCC3)C1)N1CCC2(CCCCC2)CC1

1: 1150; 2: 254
